These data points were gathered from paper PMC9503608.

assay.notes: MTT cell viability assay, Caco-2
Format: cell-based, human
assay.conditions: human, Caco-2, Caco-2 versus NHDF, 72 h; read-out: SI Caco-2 (selectivity index, cancer versus NHDF)
quantity.name: selectivity ratio at 72 h

molecule="O=c1[nH]cc(F)c(=O)[nH]1 [Dye 5-FU, 5-fluorouracil, reference compound]" quantity_name="selectivity ratio at 72 h" quantitative_result=3.6
molecule="CN1C(=Cc2oc3ccccc3[n+]2C)Oc2ccccc21.Cc1ccc(S(=O)(=O)[O-])cc1 [Dye 12]" quantity_name="selectivity ratio at 72 h" quantitative_result=20.9
molecule="CCCCCN1C(=Cc2sc3ccccc3[n+]2CCCCC)Sc2ccccc21.[I-] [Dye 10]" quantity_name="selectivity ratio at 72 h" quantitative_result=0.6
molecule="COC(=O)CN1C(=Cc2sc3ccccc3[n+]2CC(=O)OC)Sc2ccccc21.[Br-] [Dye 9]" quantity_name="selectivity ratio at 72 h" quantitative_result=0.7
molecule="CCCN1C=CC(=Cc2cc[n+](CCC)c3ccccc23)c2ccccc21.[I-] [Dye 14]" quantity_name="selectivity ratio at 72 h" quantitative_result=1.5
molecule="CCN1C(=CC=Cc2oc3ccccc3[n+]2CC)Oc2ccccc21 [Dye 15]" quantity_name="selectivity ratio at 72 h" quantitative_result=10.4
molecule="C(=C1Sc2ccccc2N1Cc1ccccc1)c1sc2ccccc2[n+]1Cc1ccccc1.[I-] [Dye 8]" quantity_name="selectivity ratio at 72 h" quantitative_result=1
molecule="CCN1C(=Cc2sc3ccccc3[n+]2CC)Sc2ccccc21 [Dye 6]" quantity_name="selectivity ratio at 72 h" quantitative_result=1.6
molecule="CN1C(=Cc2ccc3ccccc3[n+]2C)C=Cc2ccccc21.[I-] [Dye 13]" quantity_name="selectivity ratio at 72 h" quantitative_result=1
molecule="CCCCCN1C(=CC=C2CCCC(C=Cc3sc4ccccc4[n+]3CCCCC)=C2Cl)Sc2ccccc21.[I-] [Dye 17]" quantity_name="selectivity ratio at 72 h" quantitative_result=0.4
molecule="CCCCCCCCCCN1C(=Cc2sc3ccccc3[n+]2CCCCCCCCCC)Sc2ccccc21.[I-] [Dye 11]" quantity_name="selectivity ratio at 72 h" quantitative_result=0.6

----------
Recorded pIC50 by entry
Test system: normal human dermal fibroblasts (NHDF)
assay.notes: MTT cell viability assay, NHDF
Format: cell-based
assay.conditions: Homo sapiens, NHDF, 72 h, 72 h of incubation, MTT, protected from light
pIC50: −log10 of the molar value.
quantity.name: pIC50

molecule=CCCCCN1C(=Cc2sc3ccccc3[n+]2CCCCC)Sc2ccccc21.[I-] quantitative_result=6.17
molecule=CCCN1C=CC(=Cc2cc[n+](CCC)c3ccccc23)c2ccccc21.[I-] quantitative_result=6.00
molecule=CCN1C(=CC=Cc2oc3ccccc3[n+]2CC)Oc2ccccc21 quantitative_result=5.40
molecule=CN1C(=Cc2sc3ccccc3[n+]2C)Sc2ccccc21.[Br-] quantitative_result=6.39
molecule=CN1C(=Cc2oc3ccccc3[n+]2C)Oc2ccccc21.Cc1ccc(S(=O)(=O)[O-])cc1 quantitative_result=4.86
molecule=CCCCCCCCCCN1C(=Cc2sc3ccccc3[n+]2CCCCCCCCCC)Sc2ccccc21.[I-] quantitative_result=6.14
molecule=CCN1C(=Cc2sc3ccccc3[n+]2CC)Sc2ccccc21 quantitative_result=6.31
molecule="O=c1[nH]cc(F)c(=O)[nH]1 [Dye 5-FU, 5-fluorouracil, reference compound]" quantitative_result=5.21
molecule=CCCCCN1C(=CC=C2CCCC(C=Cc3sc4ccccc4[n+]3CCCCC)=C2Cl)Sc2ccccc21.[I-] quantitative_result=6.04
